METHOD_NOTES: soluble fraction after stress (log2 fold change); higher = more stays soluble; pooled small domains, quantitative proteomics;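 also: 20 min heating vs room temperature control held 20 min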
CONDITION_DETAILS: stress: 75 degC
Everything with soluble fraction (log2) lower than -2 is 0; everything else, including exactly -2, is 1.

[
  {
    "POLYMER_SEQUENCE": "HMGDAIPVPDVSGFSEDQAMNNLRKVGLRPKATYVADDNTAKGYVTGTSPAKNIEVAPDSEVIVYVSSGP",
    "CLASS_LABEL": 1
  },
  {
    "POLYMER_SEQUENCE": "HMIEESTVPDLKGKSQEDAIKLLEDANLKYQIVEEESKKIEAGYVISQETDANKKVNAGDTVIIHVST",
    "CLASS_LABEL": 1
  },
  {
    "POLYMER_SEQUENCE": "HMQMGLNEAYRVLHVSPDAPWREVQSAYKERMAKSHPDKVSHLGEELQEKAKELTVEINKAYNTIKRYKK",
    "CLASS_LABEL": 1
  },
  {
    "POLYMER_SEQUENCE": "HMEFEYFQLRDHLYNLIMHPDKEKLKKDPDYLKLMSMAFSLLEDQNVGKDILEIAIKSIENFK",
    "CLASS_LABEL": 1
  },
  {
    "POLYMER_SEQUENCE": "HMDWPDDETIARIYALIKSDISSQARKVMELRFSEGMPFARIAAAMGISETAVYRHLSHALTVIRQKLN",
    "CLASS_LABEL": 0
  },
  {
    "POLYMER_SEQUENCE": "HMTSKIIIGDSYSKINKLLGEPENMKKRKFLDNEYLMVLYSINKKNYRLYFKDNILFELEDI",
    "CLASS_LABEL": 1
  },
  {
    "POLYMER_SEQUENCE": "HMVLELRIGQIVRGVLLQLVGEREGIVSVGGVPVRARLEAEIPLGRGVMLQVQPGSDANNILLKPV",
    "CLASS_LABEL": 0
  },
  {
    "POLYMER_SEQUENCE": "HMATTIEAPMPGKILDVKVNPGQAVSYGQVVLTMEAMKMETEIVAPADGTVASVLVKSGDMVETGAALVSL",
    "CLASS_LABEL": 1
  },
  {
    "POLYMER_SEQUENCE": "HMSVDIWTGAQTGNIEAVKQHLADGVDVNSKSDIGRTALDVAIAFKQPLITDLLRKHGGKTRDELKAAE",
    "CLASS_LABEL": 1
  },
  {
    "POLYMER_SEQUENCE": "HMRNDIFDQLTEREMQILQEVAKGYRNKQIADHLFISESTVKVHMKSLLKKLQVPSRTAATVLYLERYG",
    "CLASS_LABEL": 1
  },
  {
    "POLYMER_SEQUENCE": "HMLTAPMPGTIQQILVTKGQKVRSGQTLMILEAMKMEHKIKAPNSGEIISINYSLGNRVEMGANLIEI",
    "CLASS_LABEL": 0
  },
  {
    "POLYMER_SEQUENCE": "HMKVSDLIGMLGRVTGELAPTGIVLVGNKTWTAISEDASVIASGEQVQVRSVAGLILTVSHQVD",
    "CLASS_LABEL": 0
  },
  {
    "POLYMER_SEQUENCE": "HMINLNEVLANFQKSYPNLAGFKYDQGMDALVYEGNYIRLNGYMLSRINPTLFSMSPDDIFTYLKNGF",
    "CLASS_LABEL": 0
  },
  {
    "POLYMER_SEQUENCE": "HMTYFDIAPELLTVYKEINDIPRDINQIVRKTGLSINEVSYKTMILQLEDKIVELPGQRFIRNS",
    "CLASS_LABEL": 0
  },
  {
    "POLYMER_SEQUENCE": "HMLSLSDIINDVMERLTREKNLTFDELLGEKRERRRIVYTFLALLELIRLKMIKAYQTAAFGVIRIFPR",
    "CLASS_LABEL": 1
  },
  {
    "POLYMER_SEQUENCE": "HMSEFAYPISLNGKTKFNLALSLALTKEEIEKEVLANADVQKFLNGQTPKKLIVVPGKIVNVV",
    "CLASS_LABEL": 1
  },
  {
    "POLYMER_SEQUENCE": "HMQMPDLTGKPRAEAVTTLAALGFTDVKFLDASAGDEPLDYVADQVVRTSPEAGAALASGQQITIYLAT",
    "CLASS_LABEL": 1
  },
  {
    "POLYMER_SEQUENCE": "HMQKLSPKQRRGNIIELIKENPTITAKNISTIFNLNQRTIERDLAKLTEEGYIKYEGSSKDGKWVFL",
    "CLASS_LABEL": 1
  },
  {
    "POLYMER_SEQUENCE": "HMSHSVLIDISQLRIGMYIQLDVGWMHHPFPVSSFRVASLEQIEALRTLNLAQVRYFPAKSDPV",
    "CLASS_LABEL": 0
  },
  {
    "POLYMER_SEQUENCE": "HMITPAARLRALKIRLSVDEVAQIVQRLVNGETVYQIGKPDTGGHAKATVGKINALRLAGQLHFL",
    "CLASS_LABEL": 1
  },
  {
    "POLYMER_SEQUENCE": "HMTTTYEINDEMLKPLILEIFNKSKQRFGSTKIAPVLKREGYTASIAKVKTLMNELGIKPVNA",
    "CLASS_LABEL": 1
  },
  {
    "POLYMER_SEQUENCE": "HMSLTEESAKSLIGLTENEAVKVAAERGWTVRVAMRDGEAFMLTQDYSENRVNLTVMKTLVTAVTI",
    "CLASS_LABEL": 0
  }
]
